Tested on: LG0567-F671-PDC complex spheroids viability;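 further: spheroids exposed to compound for seven days before readout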
Measurement notes: Anticancer human tumor LG0567-F671-PDC patient-derived lung adenocarcinoma cell line growth inhibition [RAS]
Measurement parameters: second compound 0.01 µM; first compound 1 µM; stronger effect = lower value
Measurement name: viability, T/C (%)
Could you give me the number in %? Just the number is fine.

{"columns": ["Molecule", "Experimental target", "viability, T/C [%]"],
 "data": [
  ["Nc1ccn(C2OC(CO)C(O)C2(F)F)c(=O)n1 (configuration not stated) + C=CC(=O)N1CCN(c2nc(OCC3CCCN3C)nc3c(F)c(-c4nc(N)cc(C)c4C(F)(F)F)c(Cl)cc23)C(C)C1", "LG0567-F671-PDC complex spheroids viability", 14.9],
  ["Cc1nc(N2CCC3(CC2)COC(C)C3N)c(CO)nc1Sc1ccnc(N)c1Cl (configuration not stated) + C=CC(=O)N1CCN(c2nc(OCC3CCCN3C)nc3c(F)c(-c4nc(N)cc(C)c4C(F)(F)F)c(Cl)cc23)C(C)C1", "LG0567-F671-PDC complex spheroids viability", 3.41],
  ["CCC(CC)c1cc(NC2CCC(N)C2)n2nccc2n1 (configuration not stated) + C=CC(=O)N1CCN(c2nc(OCC3CCCN3C)nc3c(F)c(-c4nc(N)cc(C)c4C(F)(F)F)c(Cl)cc23)C(C)C1", "LG0567-F671-PDC complex spheroids viability", 12.7],
  ["CC(Nc1ccc2c(c1)OCCn1cc(N3C(=O)OCC3C(F)F)nc1-2)C(N)=O (configuration not stated) + C=CC(=O)N1CCN(c2nc(OCC3CCCN3C)nc3c(F)c(-c4nc(N)cc(C)c4C(F)(F)F)c(Cl)cc23)C(C)C1", "LG0567-F671-PDC complex spheroids viability", 5.85],
  ["CCN1CCN(Cc2ccc(Nc3ncc(F)c(-c4cc(F)c5nc(C)n(C(C)C)c5c4)n3)nc2)CC1 + C=CC(=O)N1CCN(c2nc(OCC3CCCN3C)nc3c(F)c(-c4nc(N)cc(C)c4C(F)(F)F)c(Cl)cc23)C(C)C1", "LG0567-F671-PDC complex spheroids viability", 20.2],
  ["CC(C)NCC(C(=O)N1CCN(c2ncnc3c2C(C)CC3O)CC1)c1ccc(Cl)cc1 (configuration not stated) + C=CC(=O)N1CCN(c2nc(OCC3CCCN3C)nc3c(F)c(-c4nc(N)cc(C)c4C(F)(F)F)c(Cl)cc23)C(C)C1", "LG0567-F671-PDC complex spheroids viability", 9.98]
]}

Attention now turns to another entry.
**Q:** Answer briefly: viability, T/C recorded on LG0567-F671-PDC complex spheroids viability for O=C(c1ccc(F)c(F)c1Nc1ccc(I)cc1F)N1CC(O)([C@@H]2CCCCN2)C1 + C=CC(=O)N1CCN(c2nc(OCC3CCCN3C)nc3c(F)c(-c4nc(N)cc(C)c4C(F)(F)F)c(Cl)cc23)C(C)C1
**A:** 1.56
